target: Gal-4 hPPARγ (Homo sapiens, UniProt P37231); construct: Plasmids pGal4-hPPARα, pGal4-hPPARγ, pGal4-hPPARδ and pG5-TK-pGL3 were constructed as previously described by Staels, Bart, et al., Nature 1998 Jun; 25; experiment: Gal4-hPPARγ transient transfection reporter assay in Cos cells; settings: luciferase reporter, 24 hours with compound, scale 1-5, read-out: Gal-4 hPPAR γ EC50 (scaled number)
Sequence (P37231 238-505 limits assumed): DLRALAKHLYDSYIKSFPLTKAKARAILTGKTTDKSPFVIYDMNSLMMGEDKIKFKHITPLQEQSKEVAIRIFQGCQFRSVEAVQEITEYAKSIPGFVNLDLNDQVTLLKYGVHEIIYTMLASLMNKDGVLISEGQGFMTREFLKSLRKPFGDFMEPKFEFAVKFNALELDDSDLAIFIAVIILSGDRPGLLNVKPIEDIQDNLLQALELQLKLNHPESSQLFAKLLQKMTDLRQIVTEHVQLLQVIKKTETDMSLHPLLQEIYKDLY
compounds and their reported EC50

The cases that follow already have their EC50 on record.
stdin: Find the recorded EC50 belonging to "Cc1ccc(Cn2cc(CCOC(=O)c3ccc(SC(C)(C)C(=O)O)cc3)nn2)cc1" and report it.
stdout: > 1000 nM

stdin: Data request, read-out EC50, for "CCCCCCn1c(COC(=O)c2ccc(OC(C)(C)C(=O)O)cc2)nn(Cc2ccc(C(C)(C)C)cc2)c1=O"
stdout: > 1000 nM

Next, consider the following compound.
stdin: What does the data say about its EC50? Entry: "CCCCCCCn1c(COC(=O)c2ccc(OC(C)(C)C(=O)O)c(OC)c2)nn(Cc2ccc(C(C)(C)C)cc2)c1=O"
stdout: 51 to 200 nM

Origin of values: patent US20100184815A1
